The values you see were collected from PubChem BioAssay (NCI).

Field: growth. Provide a value for each of the compounds that follow.
Test system: SW-620 colon
Assay: NCI-60 one-dose screen, 48 h (100 = growth as untreated, 0 = no growth, -100 = all killed)
Conditions: 10 µM
This is part of a sample that, as a whole, favours compounds with a hit. Of some 83,000 tested, about 20% had one in any assay.
I only need the number, in %, no unit after it.

Prompt line: For COC(=O)[C@]12CC[C@@H](C)[C@H](C)[C@@H]1C1=CC[C@@H]3[C@@]4(C)C/C(=N\O)[C@H](O)[C@@]5(C)COC(=C45)C[C@@]3(C)[C@]1(C)CC2 , what is its reported growth?
Response line: -64.5

Prompt line: Any idea what growth was measured for CCCCC(CC#N)(CCC)CCC ?
Response line: 108

Prompt line: Can you look up the measured growth of CC(C)(C)c1ccc(OCCCCCCN2CCNCC2)cc1 for me?
Response line: 45.9

Prompt line: I am curious: what growth value has been reported for O=C1/C(=C/c2ccc(O)cc2)CSc2ccc(Cl)cc21 ?
Response line: 27.9

Prompt line: So what's the measured growth for this one? O=C(Nc1ccc(OS(=O)(=O)Cc2ccccc2)cc1)C12CC3CC(CC(C3)C1)C2
Response line: 25.3

Prompt line: Which growth reading was recorded for the compound COc1ccc(Cn2cc3c(c2-c2cc(OC)c(OC)c(OC)c2)CCc2cnoc2-3)cc1[N+](=O)[O-] ?
Response line: 26.6

Prompt line: Param item = CC(C)CCN(CCCNc1c2c(nc3cc(Cl)ccc13)CCCC2)CCC(C)C ; retrieve measured growth.
Response line: 55.1

Prompt line: Param item = CCC(CCNc1cc(OC)cc2cccnc12)CN1C(=O)c2ccccc2C1=O (stereo not given) ; retrieve measured growth.
Response line: 135

Prompt line: GET /values?readout=growth&item= O=C(NCCc1nccs1)c1cnc2c(S)cccc2c1
Response line: 4.05

Prompt line: Fill in the blank: the reported growth of COc1cccc(C2(C)Nc3ccccc3-c3nc4ccccc4n32)c1 (stereo not given) is ____.
Response line: 108
